The following compounds are listed with their measured half-life at 1 µM values.
assay: Metabolic stability of test compounds using human liver microsomes; format: in vitro ADME; conditions: human, pH 7.4, 1.0 mg/mL HLM, 1 μM test compound, 2 mM NADPH, 37° C., 0-30 minutes, read-out: Ave. t1/2 (n = 2), calculated half-life in human liver microsomes
Answer with a number only, understood to be in min.

Here are 2 compounds together with their reported answers.
INSERT INTO measurements (compound, result_unit, recorded_measurement) VALUES
  ('Cc1ccc2c(c1)[C@]13CCCC[C@@H]1[C@H](C2)N(C)CC3 [Dimemorfan, reference compound]', 'min', 23.1),
  ('[2H]C([2H])([2H])c1ccc2c(c1)[C@]13CCCC[C@@H]1[C@H](C2)N(C([2H])([2H])[2H])CC3', 'min', 31.6);

Here is the next item to consider.
-- ask Entry [2H]C([2H])([2H])c1ccc2c(c1)[C@]13CCCC[C@@H]1[C@H](C2)N(C)CC3 has what half-life at 1 µM?
-- reply 28

Hello, the source for this data is patent US20190336494A1, in case you need it.
